Taken from patent US20090269394A1.

- System: Trichophyton mentagrophytes
- method_summary: MIC/MFC microtiter broth dilution
- Assay type: cell-based
- assay_context: n = 14 isolates; NB-002 as μg CPC/ml
readout_type: MIC range

>  <compound>
CN(C/C=C/C#CC(C)(C)C)Cc1cccc2ccccc12

>  <assayed_target>
Trichophyton mentagrophytes

>  <result>
0.0313 to 0.25 µg/mL

$$$$
>  <compound>
COC1=CC(=O)C[C@@H](C)[C@]12Oc1c(Cl)c(OC)cc(OC)c1C2=O

>  <assayed_target>
Trichophyton mentagrophytes

>  <result>
0.25 to 4 µg/mL

$$$$
>  <compound>
CCC(C)n1ncn(-c2ccc(N3CCN(c4ccc(OCC5COC(Cn6cncn6)(c6ccc(Cl)cc6Cl)O5)cc4)CC3)cc2)c1=O (centres unmarked)

>  <assayed_target>
Trichophyton mentagrophytes

>  <result>
0.0625 to 0.5 µg/mL

$$$$
>  <compound>
Clc1ccc(COC(Cn2ccnc2)c2ccc(Cl)cc2Cl)cc1 (centres unmarked)

>  <assayed_target>
Trichophyton mentagrophytes

>  <result>
0.125 to 0.25 µg/mL

$$$$
>  <compound>
Cc1cc(C2CCCCC2)n(O)c(=O)c1

>  <assayed_target>
Trichophyton mentagrophytes

>  <result>
0.125 to 1 µg/mL

$$$$

---

Listed below: MIC range values for each entry.
- Tested on: Trichophyton verrucosum
- method_summary: MIC against rare onychomycosis pathogens (CLSI M 38-A)
- Assay type: cell-based
- assay_context: 3 isolates; NB-002 as μg CPC/ml
readout_type: MIC range

>  <compound>
CCC(C)n1ncn(-c2ccc(N3CCN(c4ccc(OCC5COC(Cn6cncn6)(c6ccc(Cl)cc6Cl)O5)cc4)CC3)cc2)c1=O (stereo not shown)

>  <result>
0.06 to 0.125 µg/mL

$$$$
>  <compound>
C[C@@H]1[C@H](O)[C@@H](C)/C=C/C=C/C=C/C=C/C=C/C=C/C=C/[C@H](O[C@@H]2O[C@H](C)[C@@H](O)[C@H](N)[C@@H]2O)C[C@@H]2O[C@](O)(C[C@@H](O)C[C@@H](O)[C@H](O)CC[C@@H](O)C[C@@H](O)CC(=O)O[C@H]1C)C[C@H](O)[C@H]2C(=O)O

>  <result>
0.125 to 0.25 µg/mL

$$$$

---

- Test system: Curvularia spp.
- method_summary: MIC against rare onychomycosis pathogens (CLSI M 38-A)
- Format: cell-based
- assay_context: 3 isolates; NB-002 as μg CPC/ml

>  <molecule>
CCC(C)n1ncn(-c2ccc(N3CCN(c4ccc(OCC5COC(Cn6cncn6)(c6ccc(Cl)cc6Cl)O5)cc4)CC3)cc2)c1=O (stereo not shown)

>  <MIC range>
0.125 to 0.25 µg/mL

$$$$
>  <molecule>
C[C@@H]1[C@H](O)[C@@H](C)/C=C/C=C/C=C/C=C/C=C/C=C/C=C/[C@H](O[C@@H]2O[C@H](C)[C@@H](O)[C@H](N)[C@@H]2O)C[C@@H]2O[C@](O)(C[C@@H](O)C[C@@H](O)[C@H](O)CC[C@@H](O)C[C@@H](O)CC(=O)O[C@H]1C)C[C@H](O)[C@H]2C(=O)O

>  <MIC range>
0.125 to 1 µg/mL

$$$$
>  <molecule>
CN(C/C=C/C#CC(C)(C)C)Cc1cccc2ccccc12

>  <MIC range>
0.03 to 1 µg/mL

$$$$
>  <molecule>
Cc1cc(C2CCCCC2)n(O)c(=O)c1

>  <MIC range>
0.5 to 1 µg/mL

$$$$

---

Listed below: MIC90 values for each entry.
- Tested on: Candida albicans isolates
- method_summary: MIC/MFC microtiter broth dilution
- Type: cell-based
- assay_context: Candida albicans, Azole-Susceptible isolates (n = 10); NB-002 as μg CPC/ml; read-out: MIC90
readout_type: MIC90 (µg/mL)

>  <molecule>
Cc1cc(C2CCCCC2)n(O)c(=O)c1

>  <readout_type>
MIC90

>  <qualifier_symbol>
=

>  <result_number>
4

$$$$
>  <molecule>
CCC(C)n1ncn(-c2ccc(N3CCN(c4ccc(OCC5COC(Cn6cncn6)(c6ccc(Cl)cc6Cl)O5)cc4)CC3)cc2)c1=O (stereo not shown)

>  <readout_type>
MIC90

>  <qualifier_symbol>
=

>  <result_number>
0.5

$$$$
>  <molecule>
OC(Cn1cncn1)(Cn1cncn1)c1ccc(F)cc1F

>  <readout_type>
MIC90

>  <qualifier_symbol>
=

>  <result_number>
0.5

$$$$
>  <molecule>
CN(C/C=C/C#CC(C)(C)C)Cc1cccc2ccccc12

>  <readout_type>
MIC90

>  <qualifier_symbol>
>

>  <result_number>
1

$$$$

---

- Test system: Phoma sp.
- method_summary: MIC against rare onychomycosis pathogens (CLSI M 38-A)
- Type: cell-based
- assay_context: 3 isolates; NB-002 as μg CPC/ml
Listed below: MIC range values for each entry.
readout_type: MIC range

>  <compound>
Cc1cc(C2CCCCC2)n(O)c(=O)c1 [Ciclopirox]

>  <readout_type>
MIC range

>  <result>
0.5 to 1 mg/L

$$$$
>  <compound>
CCC(C)n1ncn(-c2ccc(N3CCN(c4ccc(OCC5COC(Cn6cncn6)(c6ccc(Cl)cc6Cl)O5)cc4)CC3)cc2)c1=O (stereo not shown) [Itraconazole]

>  <readout_type>
MIC range

>  <result>
0.06 to 0.5 mg/L

$$$$
>  <compound>
C[C@@H]1[C@H](O)[C@@H](C)/C=C/C=C/C=C/C=C/C=C/C=C/C=C/[C@H](O[C@@H]2O[C@H](C)[C@@H](O)[C@H](N)[C@@H]2O)C[C@@H]2O[C@](O)(C[C@@H](O)C[C@@H](O)[C@H](O)CC[C@@H](O)C[C@@H](O)CC(=O)O[C@H]1C)C[C@H](O)[C@H]2C(=O)O [Amphotericin B]

>  <readout_type>
MIC range

>  <result>
0.5 to 2 mg/L

$$$$
>  <compound>
CN(C/C=C/C#CC(C)(C)C)Cc1cccc2ccccc12 [Terbinafine]

>  <readout_type>
MIC range

>  <result>
0.03 mg/L

$$$$

---

- Tested on: Aspergillus spp.
- method_summary: MIC against rare onychomycosis pathogens (CLSI M 38-A)
- Format: cell-based
- assay_context: 5 isolates; NB-002 as μg CPC/ml
- From the text: Methods: All fungi were from patients, many of which had onychomycosis or another tinea infection.

>  <compound>
Cc1cc(C2CCCCC2)n(O)c(=O)c1 [Ciclopirox]

>  <MIC range>
0.5 to 2 µg/mL

$$$$
>  <compound>
CN(C/C=C/C#CC(C)(C)C)Cc1cccc2ccccc12 [Terbinafine]

>  <MIC range>
0.03 to 0.25 µg/mL

$$$$
>  <compound>
CCC(C)n1ncn(-c2ccc(N3CCN(c4ccc(OCC5COC(Cn6cncn6)(c6ccc(Cl)cc6Cl)O5)cc4)CC3)cc2)c1=O (stereo not shown) [Itraconazole]

>  <MIC range>
0.06 to 1 µg/mL

$$$$
>  <compound>
C[C@@H]1[C@H](O)[C@@H](C)/C=C/C=C/C=C/C=C/C=C/C=C/C=C/[C@H](O[C@@H]2O[C@H](C)[C@@H](O)[C@H](N)[C@@H]2O)C[C@@H]2O[C@](O)(C[C@@H](O)C[C@@H](O)[C@H](O)CC[C@@H](O)C[C@@H](O)CC(=O)O[C@H]1C)C[C@H](O)[C@H]2C(=O)O [Amphotericin B]

>  <MIC range>
1 to 4 µg/mL

$$$$

---

- System: Candida albicans isolates
- method_summary: MIC/MFC microtiter broth dilution
- Type: cell-based
- assay_context: Azole-Susceptible isolates (n = 10); NB-002 as μg CPC/ml
Listed below: MFC90 values for each entry.
readout_type: MFC90

>  <compound>
OC(Cn1cncn1)(Cn1cncn1)c1ccc(F)cc1F

>  <result>
>64 µg/mL

$$$$
>  <compound>
Cc1cc(C2CCCCC2)n(O)c(=O)c1

>  <result>
>32 µg/mL

$$$$
>  <compound>
CN(C/C=C/C#CC(C)(C)C)Cc1cccc2ccccc12

>  <result>
>1 µg/mL

$$$$
>  <compound>
CCC(C)n1ncn(-c2ccc(N3CCN(c4ccc(OCC5COC(Cn6cncn6)(c6ccc(Cl)cc6Cl)O5)cc4)CC3)cc2)c1=O (centres unmarked)

>  <result>
>16 µg/mL

$$$$
>  <compound>
C[C@@H]1[C@H](O)[C@@H](C)/C=C/C=C/C=C/C=C/C=C/C=C/C=C/[C@H](O[C@@H]2O[C@H](C)[C@@H](O)[C@H](N)[C@@H]2O)C[C@@H]2O[C@](O)(C[C@@H](O)C[C@@H](O)[C@H](O)CC[C@@H](O)C[C@@H](O)CC(=O)O[C@H]1C)C[C@H](O)[C@H]2C(=O)O

>  <result>
2 µg/mL

$$$$
